Source: ChEMBL document CHEMBL1151717

- TEST SYSTEM: CYP19 (aromatase) (Homo sapiens)
- Sequence (P11511 whole entry): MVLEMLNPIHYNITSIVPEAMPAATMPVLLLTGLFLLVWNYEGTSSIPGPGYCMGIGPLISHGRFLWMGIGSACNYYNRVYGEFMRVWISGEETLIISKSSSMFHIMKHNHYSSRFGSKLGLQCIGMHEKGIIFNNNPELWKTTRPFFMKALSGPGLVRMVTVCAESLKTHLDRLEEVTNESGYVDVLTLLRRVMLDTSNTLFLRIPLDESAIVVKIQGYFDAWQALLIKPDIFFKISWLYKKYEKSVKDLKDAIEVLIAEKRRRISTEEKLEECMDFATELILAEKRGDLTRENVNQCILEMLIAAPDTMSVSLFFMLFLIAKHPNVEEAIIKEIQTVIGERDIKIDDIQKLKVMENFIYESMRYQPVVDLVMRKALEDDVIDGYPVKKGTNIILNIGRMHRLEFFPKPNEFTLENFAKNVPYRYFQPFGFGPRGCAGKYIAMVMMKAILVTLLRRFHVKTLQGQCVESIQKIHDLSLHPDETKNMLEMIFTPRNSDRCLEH
- ASSAY PROTOCOL: Inhibition of human placental CYP19 at 500 nM
- Type: functional
READOUT KIND: inhibition at 0.5 µM (%)
Express it in %; write the number only.

Would you please look over these solved cases?
Name the reported inhibition at 0.5 µM value associated with the molecule COc1cncc(-c2ccc3c(c2)CCC(=O)N3C)c1
5

Please give the measured inhibition at 0.5 µM for this molecule: OC1CCc2cc(-c3cccnc3)ccc2C1 (stereo not drawn)
23

Need inhibition at 0.5 µM, item O=C1CCc2cc(-c3cccnc3)ccc2C1
31

New cases:
// lookup inhibition at 0.5 µM for COc1cncc(-c2ccc3c(c2)CCC(=O)C3)c1
58
